Biological target: T1, 4H949-bA
T1 chain: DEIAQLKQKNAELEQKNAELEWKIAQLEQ
Test: two-hybrid library CCNG1;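 also: natural log of median RNA to DNA barcode read ratio; higher means stronger binding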
OBSERVABLE: interaction score

DEIAQLEQEIAELEQKNAELEWKNAQLKQ [4H56-bA]    -0.628
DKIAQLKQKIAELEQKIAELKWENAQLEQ [4H2859-bA]    -1.6
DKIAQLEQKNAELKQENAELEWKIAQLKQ [4H2518-bA]    -0.976

Problem: For the binder DEIAQLEQKIAELKQENAELKWKIAQLEQ [4H349-bA] , what interaction score is on record?
Result: -1.01

Problem: Fill blank: measured interaction score of the binder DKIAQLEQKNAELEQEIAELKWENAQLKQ [4H2444-bA] is ____.
Result: -0.993

Problem: What value of interaction score has been reported for the following binder? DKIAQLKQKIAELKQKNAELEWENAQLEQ [4H2931-bA]
Result: -1.37
